Test system: HRE–bla ME-180 cells
experiment.summary: Viability (BLA): CellTiter-Glo counter screen in HRE–bla cells
Assay type: cell-based, human
run.conditions: Table S7; confirmatory screen, 1% O2, 18 h
Can you tell me IC50 for the items I'm about to list?

Solved entries (count: 2):
> print(dat)
                                   compound  measured.result
1  CC(/C=C/C(=O)NO)=C\[C@@H](C)C(=O)c1ccc(N(C)C)cc1 [Trichostatin A]          9.68 µM
2  CCCCCCCCCCCCCC[N+](C)(C)C.[Br-] [MitMAB]          18.2 µM

Attention now turns to another entry.
Using the record for N#C/C(=C\c1ccc(-c2cc(Cl)ccc2Cl)o1)C(=O)Nc1cccc2ncccc12 [AGK2] , report its IC50.
10.1 µM
